FYI, the data here is from patent US11040028B2.

Test system: BHK-21 cells
test.protocol: Anti-fibrosis activity test: inhibition of BHK-21 cell proliferation (CCK-8)
Assay type: cell-based
condition.info: Mesocricetus auratus, BHK-21, 48 h, CCK-8, 48 hours after administration
metric: IC50

Asked: Hello, I am looking for reported IC50 with BHK-21 cells for N#Cc1ccccc1-c1ccc(Cn2c3c(c(=O)c4ccccc42)C(=O)n2cccc2-3)cc1 [Compound 648a] . Could you help?
Given back: 0.05 to 5 mM

Asked: Hello, I am looking for reported IC50 with BHK-21 cells for CC(C)(C)c1ccc(Cn2c3c(c(=O)c4ccccc42)C(=O)n2cccc2-3)cc1 [Compound 605a] . Could you help?
Given back: 0.05 to 5 mM

Asked: Hello, I am looking for reported IC50 with BHK-21 cells for O=C(COc1c2c(nc3ccccc13)-c1cccn1C2=O)c1ccc(C(F)(F)F)cc1 [Compound 91b] . Could you help?
Given back: 0.05 to 5 mM

***
Asked: Hello, I am looking for reported IC50 with BHK-21 cells for O=C1c2c(nc3ccc(OC(F)(F)F)cc3c2O)-c2cccn21 [Compound 306b] . Could you help?
Given back: 0.05 to 5 mM

* * *

Overview of recorded IC50 for various compounds
Tested on: human hepatic stellate cells LX-2
test.protocol: Anti-fibrosis activity test: inhibition of proliferation of human hepatic stellate cells LX-2 (CCK-8)
Format: cell-based
condition.info: Homo sapiens, LX-2, 48 h, LX-2 cells, 48 h, CCK-8

Before answering, review these 3 worked examples.
Asked: GET /values?readout=IC50&item= Cc1cccc2c(=O)c3c([nH]c12)-c1cccn1C3=O [Compound 732a]
Given back: 0.05 to 5 mM

Asked: GET /values?readout=IC50&item= Cc1cc(C)c2nc3c(c(O)c2c1)C(=O)n1cccc1-3 [Compound 750b]
Given back: 0.05 to 5 mM

Asked: GET /values?readout=IC50&item= Cc1cc2n(c1)C(=O)c1nc3ccccc3c(O)c1-2 [Compound 798b]
Given back: 0.05 to 5 mM

Please find the next compound below.
Asked: GET /values?readout=IC50&item= Cc1cc2nc3c(c(O)c2cc1C)C(=O)n1cccc1-3 [Compound 756b]
Given back: 0.05 to 5 mM

* * *

Overview of recorded IC50 for various compounds
Tested on: BHK-21 cells
test.protocol: Anti-fibrosis activity test: inhibition of BHK-21 cell proliferation (CCK-8)
Assay type: cell-based
condition.info: Mesocricetus auratus, BHK-21, 48 h, CCK-8, 48 hours after administration

Asked: GET /values?readout=IC50&item= O=C1c2c(nc3ccccc3c2OCc2ccc(F)cc2F)-c2cccn21 [Compound 578b]
Given back: 0.05 to 5 mM

Asked: GET /values?readout=IC50&item= COc1cccc2[nH]c3c(c(=O)c12)C(=O)n1cccc1-3 [Compound 473a]
Given back: 0.05 to 5 mM

Asked: GET /values?readout=IC50&item= CS(=O)(=O)CCCn1c2c(c(=O)c3ccccc31)C(=O)n1cccc1-2 [Compound 659a]
Given back: 0.05 to 5 mM

Asked: GET /values?readout=IC50&item= CCOC(=O)Cn1c2c(c(=O)c3ccccc31)C(=O)n1cccc1-2 [Compound 654a]
Given back: 5 to 20 mM

Asked: GET /values?readout=IC50&item= O=C1c2c(n(-c3ccc(Cl)cc3)c3ccc(OC(F)(F)F)cc3c2=O)-c2cccn21 [Compound 300a]
Given back: 5 to 20 mM

Asked: GET /values?readout=IC50&item= O=C1c2c(nc3ccc(F)cc3c2O)-c2cccn21 [Compound 156b]
Given back: 0.05 to 5 mM

***
Asked: GET /values?readout=IC50&item= O=C1c2c(n(CCN3CCOCC3)c3ccccc3c2=O)-c2cccn21 [Compound 662a]
Given back: 0.05 to 5 mM

Asked: GET /values?readout=IC50&item= O=C1c2c([nH]c3cc(F)ccc3c2=O)-c2cccn21 [Compound 488a]
Given back: 0.05 to 5 mM

Asked: GET /values?readout=IC50&item= O=C1c2c(n(Cc3cccc(Cl)c3)c3c(Cl)cccc3c2=O)-c2cccn21 [Compound 459a]
Given back: 0.05 to 5 mM

Asked: GET /values?readout=IC50&item= N#Cc1ccc2c(c1)c(=O)c1c(n2Cc2ccc(Cl)cc2)-c2cccn2C1=O [Compound 625a]
Given back: 0.05 to 5 mM

Asked: GET /values?readout=IC50&item= O=C1c2c(n(Cc3ccccc3Cl)c3c(Cl)cccc3c2=O)-c2cccn21 [Compound 461a]
Given back: < 0.05 mM

Asked: GET /values?readout=IC50&item= O=C1c2c(n(Cc3ccc(Cl)cc3F)c3ccccc3c2=O)-c2cccn21 [Compound 602a]
Given back: 0.05 to 5 mM

Asked: GET /values?readout=IC50&item= O=C1c2c(nc3cccc(O)c3c2O)-c2cccn21 [Compound 470b]
Given back: 0.05 to 5 mM

Asked: GET /values?readout=IC50&item= O=C1c2c(nc3cc(F)ccc3c2OCc2cccc(Cl)c2)-c2cccn21 [Compound 497b]
Given back: 0.05 to 5 mM

Asked: GET /values?readout=IC50&item= O=C1c2c(nc3cc(Cl)ccc3c2OCc2ccc(F)cc2)-c2cccn21 [Compound 502b]
Given back: 0.05 to 5 mM

Asked: GET /values?readout=IC50&item= O=C1c2c(nc3c(C(F)(F)F)cccc3c2OCc2ccccc2Cl)-c2cccn21 [Compound 457b]
Given back: 0.05 to 5 mM

Asked: GET /values?readout=IC50&item= O=C1c2c(nc3cccc(C(F)(F)F)c3c2OCc2ccccc2Cl)-c2cccn21 [Compound 472b]
Given back: 0.05 to 5 mM

Asked: GET /values?readout=IC50&item= Cc1cccc(Cn2c3c(c(=O)c4ccccc42)C(=O)n2cccc2-3)c1 [Compound 609a]
Given back: 0.05 to 5 mM
